Tested on: M19-MEL
Assay: NCI tumour cell line growth inhibition, 48 h
Activity calls are given as the source filed them. No stated cut-off is given here; in the data, active = GI50 up to about 1.1 µM and inactive = higher.
GI50: recorded values

Take a look at these entries with their results.
I am curious: what GI50 value has been reported for CCOC(=O)NC(=O)c1cn(CCCCCOC(=O)NCCCCCCNC(=O)OCCCCCn2cc(C(=O)NC(=O)OCC)c(=O)[nH]c2=O)c(=O)[nH]c1=O ?
> 100 µM (inactive)

// query GI50 value for entry COc1cc2ccnc(-c3c4ccccc4c(N)c4c(OC)c(OC)ccc34)c2cc1OC
3.87 µM (inactive)

Sample CCCCCCCCCCCc1nnc(N)o1 — what was its GI50?
> 100 µM (inactive)

# get_value(readout='GI50', item= C/C(=N\NC(=O)CC(=O)Nc1ccc(C)cc1)c1cc2ccccc2oc1=O )
> 100 µM (inactive)

Request the reported GI50 associated with O=C(O)c1ccc2c(c1)C(=O)N(c1ccc(S(=O)(=O)c3ccc(N4C(=O)c5ccc(C(=O)O)cc5C4=O)cc3)cc1)C2=O
> 100 µM (inactive)

Further cases:
Given CC1C(=O)O[C@H]2C1CC[C@@]1(C)[C@H](O)CC[C@@]13C[C@]2(O)OO3 (stereo partly drawn) , state its recorded GI50.
> 100 µM (inactive)

Name the reported GI50 value associated with the compound COc1cccc(C(=O)C2C(=O)N(C)CCc3ccccc32)c1OC (stereo not drawn)
> 100 µM (inactive)

Recorded GI50 for COC(=O)C(=O)C(C(=O)C(=O)Nc1ccc(Cl)cc1C)c1nc2ccc(C(=O)c3ccccc3)cc2nc1O (stereo not drawn) , please?
> 100 µM (inactive)

Dear colleague, I am looking for the recorded GI50 of the following compound: COC1CCC2C(NS(=O)(=O)c3ccc(C)cc3)CCCC2O1.Cc1ccc(S(=O)(=O)NC(C)(C)C=O)cc1 (stereo not drawn)
12.7 µM (inactive)

Entry O=c1[nH]c2c(O)cccc2c2cc3c(c(O)c12)OCO3 [NARCIPRIMINE] : reported GI50 = ?
20.3 µM (inactive)

For Cc1cc2c(c(C(N)=O)c1C)-c1cccc(F)c1C2=O , what is its reported GI50?
> 100 µM (inactive)
